measured_target: CRAC channel (endogenous SOC in HEK293 cells) (Homo sapiens, UniProt Q96D31)
Construct: host or cells: HEK293
Sequence (Q96D31 whole entry): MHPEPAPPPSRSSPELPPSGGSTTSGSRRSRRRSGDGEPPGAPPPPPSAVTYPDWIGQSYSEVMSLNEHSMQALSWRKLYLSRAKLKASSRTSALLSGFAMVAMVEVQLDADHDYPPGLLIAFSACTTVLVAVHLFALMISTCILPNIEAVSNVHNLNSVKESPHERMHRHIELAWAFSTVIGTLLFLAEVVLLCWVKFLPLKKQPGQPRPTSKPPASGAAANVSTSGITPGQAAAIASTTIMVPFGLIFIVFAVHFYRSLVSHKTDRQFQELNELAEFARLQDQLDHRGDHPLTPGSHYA
measurement_description: HEK Calcium Influx Assay (FLIPR)
Type: cell-based
condition_notes: 10 μM compound, thapsigargin store depletion, Ca2+ signal 9.5-10 min post-administration, read-out: % inhib. [@ 10 μM] FLIPR
readout: inhibition at 10 µM

Supply reported inhibition at 10 µM belonging to this compound: Cn1nc(C(=O)Nc2ccncc2F)cc1-c1cc(-c2nccs2)ccc1Cl
50 to 70%

Give recorded inhibition at 10 µM. COc1ccc(-c2nccs2)cc1-c1cc(C(=O)Nc2ccncc2F)nn1C
< 50%

Write down inhibition at 10 µM measured for item Cc1ccc(-c2nccs2)cc1-c1cc(C(=O)Nc2ccncc2F)nn1C
> 70%

Complete the entry with inhibition at 10 µM for COc1ccc(-c2nccs2)cc1-c1c(N)c(C(=O)Nc2c(F)cncc2F)nn1C
< 50%

Quick one: give measured inhibition at 10 µM for COc1ccc(NC(=O)c2cc(-c3cc(-c4nccs4)ccc3C)n(C)n2)cc1
50 to 70%

Given COc1ccc(-c2nccs2)cc1-c1c(N)c(C(=O)Nc2c(F)cccc2F)nn1C , respond with its inhibition at 10 µM.
< 50%

Report measured inhibition at 10 µM; entry is COc1ccc(C2CC2)cc1-c1c(C)c(C(=O)Nc2c(F)cncc2F)nn1C
> 70%

Return the recorded inhibition at 10 µM value; entry: Cn1nc(C(=O)Nc2c(F)cccc2F)cc1-c1cccc(-c2nccs2)c1
> 70%

Please look at this compound and report its inhibition at 10 µM: Cn1nc(C(=O)Nc2c(F)cncc2F)cc1-c1ccc(C2CC2)cc1OC(F)(F)F
> 70%

Name the recorded inhibition at 10 µM of the compound listed here: Cc1c(C(=O)Nc2c(F)cccc2F)nn(C)c1-c1cccc(-c2nccs2)c1
> 70%

Output inhibition at 10 µM of Cc1ccc(C2CCOCC2)cc1-c1cc(C(=O)Nc2ccncc2F)nn1C
50 to 70%

Return inhibition at 10 µM (reported value) for this compound: Cc1ccc(C2CCOCC2)cc1-c1cc(C(=O)Nc2c(F)cccc2F)nn1C
> 70%

Hello, please tell me recorded inhibition at 10 µM for this one: Cn1nc(C(=O)Nc2c(F)cccc2F)cc1-c1cc(C2CC2)ccc1OC(F)(F)F
> 70%

Tell me inhibition at 10 µM reported for Cc1c(C(=O)Nc2ccncc2F)nn(C)c1-c1cccc(-c2nccs2)c1
> 70%

Input COc1ccc(-c2ncco2)cc1-c1c(N)c(C(=O)Nc2c(F)cncc2F)nn1C , output reported inhibition at 10 µM.
< 50%

Tell us which inhibition at 10 µM value is on record for Cn1nc(C(=O)Nc2c(F)cccc2F)cc1-c1ccc(C2CC2)cc1OC(F)(F)F
> 70%

Please give measured inhibition at 10 µM of the following entry: COc1ccc(C2=NOC(C)(C)C2=O)cc1-c1cc(C(=O)Nc2c(F)cccc2F)nn1C
< 50%

Let me know recorded inhibition at 10 µM for Cc1ccc(-c2nccs2)cc1-c1c(C)c(C(=O)Nc2c(F)cccc2F)nn1C , thanks.
< 50%

---

measured_target: CRAC channel (endogenous SOC in HEK293 cells) (Homo sapiens)
Construct: host or cells: HEK293
measurement_description: HEK Calcium Influx Assay (FLIPR)
Assay type: cell-based
condition_notes: 10 μM compound, thapsigargin store depletion, Ca2+ signal 9.5-10 min post-administration, read-out: % inhib. [@ 10 μM] FLIPR
readout: inhibition at 10 µM

Provide inhibition at 10 µM value for the following compound: Cc1ccc(-c2ccncc2)cc1-c1cc(C(=O)Nc2ccncc2F)nn1C
> 70%

For the compound Cn1nc(C(=O)Nc2c(F)cncc2F)c(N)c1-c1cc(-c2ncco2)ccc1OC(F)(F)F , give its reported inhibition at 10 µM.
< 50%

Supply recorded inhibition at 10 µM for Cn1nc(C(=O)Nc2c(F)cccc2F)cc1-c1cc(-c2ncco2)ccc1OC(F)(F)F here.
> 70%

Write down inhibition at 10 µM measured for item Cn1nc(C(=O)Nc2ccncc2F)cc1-c1cc(C2CC2)ccc1OC(F)(F)F
> 70%

Complete the entry with inhibition at 10 µM for Cc1cc(-c2nccs2)ccc1-c1cc(C(=O)Nc2c(F)cccc2F)nn1C
> 70%
